target: xanthine oxidase from bovine milk (Bos taurus, UniProt P80457)
Sequence (P80457 whole entry): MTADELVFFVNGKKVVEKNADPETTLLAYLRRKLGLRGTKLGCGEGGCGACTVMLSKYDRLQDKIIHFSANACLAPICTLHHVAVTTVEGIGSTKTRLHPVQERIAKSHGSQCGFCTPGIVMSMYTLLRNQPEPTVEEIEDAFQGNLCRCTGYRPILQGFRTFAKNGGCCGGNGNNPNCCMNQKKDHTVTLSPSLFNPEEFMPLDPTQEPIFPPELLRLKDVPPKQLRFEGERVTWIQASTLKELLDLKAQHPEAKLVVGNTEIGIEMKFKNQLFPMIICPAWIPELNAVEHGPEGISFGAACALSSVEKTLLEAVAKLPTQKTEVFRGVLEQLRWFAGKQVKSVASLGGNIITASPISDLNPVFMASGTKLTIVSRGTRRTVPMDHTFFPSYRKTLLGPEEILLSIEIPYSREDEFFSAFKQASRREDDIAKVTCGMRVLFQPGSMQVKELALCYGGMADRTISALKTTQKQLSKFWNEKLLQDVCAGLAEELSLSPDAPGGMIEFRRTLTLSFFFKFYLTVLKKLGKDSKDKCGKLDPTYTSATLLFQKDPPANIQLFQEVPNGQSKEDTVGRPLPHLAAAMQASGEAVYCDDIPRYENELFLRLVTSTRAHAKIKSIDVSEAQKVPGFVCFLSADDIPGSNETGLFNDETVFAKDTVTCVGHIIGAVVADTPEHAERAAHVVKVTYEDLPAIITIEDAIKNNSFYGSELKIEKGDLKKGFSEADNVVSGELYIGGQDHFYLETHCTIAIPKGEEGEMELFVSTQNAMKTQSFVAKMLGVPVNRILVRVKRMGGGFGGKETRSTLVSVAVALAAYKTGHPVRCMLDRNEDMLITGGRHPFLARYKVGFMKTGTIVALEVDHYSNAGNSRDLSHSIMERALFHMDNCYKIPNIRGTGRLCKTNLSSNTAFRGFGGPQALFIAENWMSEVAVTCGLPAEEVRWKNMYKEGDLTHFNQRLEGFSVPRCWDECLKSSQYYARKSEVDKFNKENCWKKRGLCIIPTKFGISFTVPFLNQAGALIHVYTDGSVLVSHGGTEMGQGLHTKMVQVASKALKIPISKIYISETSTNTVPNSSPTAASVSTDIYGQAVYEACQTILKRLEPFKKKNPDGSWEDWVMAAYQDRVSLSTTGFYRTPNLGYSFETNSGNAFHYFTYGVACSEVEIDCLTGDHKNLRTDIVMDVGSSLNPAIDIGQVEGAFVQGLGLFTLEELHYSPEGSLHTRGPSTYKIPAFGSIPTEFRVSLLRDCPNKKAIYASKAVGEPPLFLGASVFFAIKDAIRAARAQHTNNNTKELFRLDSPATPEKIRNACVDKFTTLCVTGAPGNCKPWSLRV
READOUT: IC50 (µM)

INSERT INTO measurements (compound_structure, recorded_value) VALUES
  ('O=C(O)c1cc2ccc(Br)cc2[nH]1', 82);

(a) Brc1cncc(-c2nn[nH]n2)c1
(b) O=C(O)c1cc(-c2cccc(F)c2)[nH]n1
Param metric = IC50; output whichever of a , b has the minimum value. Bench note: the answer is the label of the chosen record. b
(b: 30 µM, a: 64 µM)

----------
biological target: xanthine oxidase from bovine milk (Bos taurus); construct: xanthine oxidase from bovine milk (0.5 U/mg); purchased Sigma-Aldrich (St. Louis, MO, USA); host or cells: bovine milk (natural source); test: Kinetic measurements of XO activity (Michaelis-Menten / Lineweaver-Burk); format: biochemical; details: pooled over the tested inhibitor concentrations; 4-30 µM xanthine
The molecules listed here are annotated with their Vmax in presence of inhibitor.

Check out these entries, answers already filled in.
INSERT INTO measurements (compound_structure, readout, recorded_value) VALUES
  ('O=C(O)c1cc2ccc(Br)cc2[nH]1', 'Vmax in presence of inhibitor', '0.087 ± 0.004 (n = 2) ΔE/min'),
  ('Brc1cncc(-c2nn[nH]n2)c1', 'Vmax in presence of inhibitor', '0.086 ± 0.003 (n = 4) ΔE/min'),
  ('O=C(O)c1cc(-c2ccc(Cl)cc2)ncn1', 'Vmax in presence of inhibitor', '0.113 ± 0.007 (n = 4) ΔE/min');

Input O=C(O)c1cc(-c2cccc(F)c2)[nH]n1 . Output Vmax in presence of inhibitor: 0.093 ± 0.007 (n = 4) ΔE/min
